From: ChEMBL document CHEMBL1133549

tested on: A2780; assay: The compound was tested for cytotoxic activity against A2780 cell line(human ovarian carcinoma ); type: functional, cell-based
The entries below come with measured IC50 values attached.
Record the value in nM, omitting the unit from your answer.

Worked examples follow.
CN(C)CCNC(=O)c1ccc(Cl)c2cc3ccccc3nc12 | 2050
CN(C)CCNC(=O)c1ccc(NCCNCCO)c2cc3ccccc3nc12 | 85
CN(C)CCNC(=O)c1cccc2cc3ccccc3nc12 | 510
CCN(CC)CCNC(=O)c1ccc(NCCN(CC)CC)c2cc3ccccc3nc12 | 415
O=C(NCCN1CCCCC1)c1ccc(NCCN2CCCCC2)c2cc3ccccc3nc12 | 100
CN(C)CCNC(=O)c1ccc(NCCN(C)C)c2cc3cc(O)ccc3nc12 | 110
O=C(NCCN1CCOCC1)c1ccc(NCCN2CCOCC2)c2cc3ccccc3nc12 | 2300
NCCNC(=O)c1ccc(NCCN)c2cc3ccccc3nc12 | 12000
COc1ccc2nc3c(C(=O)NCCN(C)C)ccc(NCCN(C)C)c3cc2c1 | 96
CN(C)CCNC(=O)c1ccc(NCCN(C)C)c2cc3ccccc3nc12 | 4.3

# input compound: CN(C)CCNC(=O)c1ccc(NCCN(C)C)c2c(=O)c3ccccc3[nH]c12 ; wanted: its IC50
15
